Measured IC50 of individual entries
system: BIR2 domain of XIAP (Homo sapiens (Human), UniProt P98170, C202A/C213G)
Sequence (P98170 124-240 with tags or gaps C202A/C213G limits assumed): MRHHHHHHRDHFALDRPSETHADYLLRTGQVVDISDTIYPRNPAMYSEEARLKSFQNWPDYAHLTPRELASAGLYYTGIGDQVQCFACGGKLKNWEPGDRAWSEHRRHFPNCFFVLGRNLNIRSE
procedure_text: TR-FRET assay for BIR2 (inhibition of binding of XIAP BIR2 domain to SMAC-derived Peptide A)
condition_parameters: 6x His-tagged BIR2 domain (aa 124-240 of XIAP) 10 nM, Peptide A 20 nM, TR-FRET; read-out: IC50 BIR2
Structures can show the parent of a compound that is named as a salt.

{"compound": "CN[C@@H](C)C(=O)N[C@H]1CN(C(=O)CC2CCOCC2)c2ccccc2N(Cc2c(C)ccc3ccccc23)C1=O [Example 96c]", "system": "BIR2 domain of XIAP (Homo sapiens (Human), UniProt P98170, C202A/C213G)", "result_units": "nM", "IC50": 106}
{"compound": "CN[C@@H](C)C(=O)N[C@H]1CN(C(=O)CCCC(C)=O)c2ccccc2N(Cc2c(OC)ccc3cc(Br)ccc23)C1=O [Example 27, hydrochloride]", "system": "BIR2 domain of XIAP (Homo sapiens (Human), UniProt P98170, C202A/C213G)", "result_units": "nM", "IC50": 33}
{"compound": "CN[C@@H](C)C(=O)N[C@H]1CN(C(=O)c2ccc(C(O)C(F)(F)F)cc2)c2ccccc2N(Cc2c(OC)ccc3cc(Br)ccc23)C1=O (mixture of isomers) [Example 32]", "system": "BIR2 domain of XIAP (Homo sapiens (Human), UniProt P98170, C202A/C213G)", "result_units": "nM", "IC50": 25}
{"compound": "CN[C@@H](C)C(=O)N[C@H]1CN(C(=O)Cc2ccccc2)c2ccccc2N(Cc2cccc3ccccc23)C1=O [Example 4, hydrochloride]", "system": "BIR2 domain of XIAP (Homo sapiens (Human), UniProt P98170, C202A/C213G)", "result_units": "nM", "IC50": 409}
{"compound": "COc1ccc2c(CN3C(=O)[C@@H](NC(=O)[C@H](C)N)CN(C(=O)c4ccc(C(C)=O)cc4)c4ccccc43)cc(=O)oc2c1 [Example 69j]", "system": "BIR2 domain of XIAP (Homo sapiens (Human), UniProt P98170, C202A/C213G)", "result_units": "nM", "IC50": 213}
{"compound": "CN[C@@H](C)C(=O)N[C@H]1CN(C(=O)c2ccc(C(C)=O)cc2)c2ccccc2N(Cc2c(C)ccc3ccccc23)C1=O [Example 13f]", "system": "BIR2 domain of XIAP (Homo sapiens (Human), UniProt P98170, C202A/C213G)", "result_units": "nM", "IC50": 54}
{"compound": "CC[C@H](NC)C(=O)N[C@H]1CN(C(=O)c2ccc(C(C)=O)cc2)c2ccccc2N(Cc2c(OC)ccc3cc(Br)ccc23)C1=O [Example 79, hydrochloride]", "system": "BIR2 domain of XIAP (Homo sapiens (Human), UniProt P98170, C202A/C213G)", "result_units": "nM", "IC50": 1}
{"compound": "CN[C@@H](C)C(=O)N[C@H]1CN(C(=O)Cc2cccnc2)c2ccccc2N(Cc2c(C)ccc3ccccc23)C1=O [Example 96h]", "system": "BIR2 domain of XIAP (Homo sapiens (Human), UniProt P98170, C202A/C213G)", "result_units": "nM", "IC50": 23}
{"compound": "CN[C@@H](C)C(=O)N[C@H]1CN(C(=O)CS(C)(=O)=O)c2ccc(C#N)cc2N(Cc2c(OC)ccc3ccccc23)C1=O [Example 171, hydrochloride]", "system": "BIR2 domain of XIAP (Homo sapiens (Human), UniProt P98170, C202A/C213G)", "result_units": "nM", "IC50": 30.3}
{"compound": "CN[C@@H](C)C(=O)N[C@H]1CN(C(=O)c2ccc(C(C)=O)cc2)c2ccccc2N(CC(=O)Nc2cccc3ccccc23)C1=O [Example 105]", "system": "BIR2 domain of XIAP (Homo sapiens (Human), UniProt P98170, C202A/C213G)", "result_units": "nM", "IC50": 503}
{"compound": "CN[C@@H](C)C(=O)N[C@H]1CN(C(=O)CCN)c2ccccc2N(Cc2c(OC)ccc3cc(C(=O)OC)ccc23)C1=O [Example 61, hydrochloride]", "system": "BIR2 domain of XIAP (Homo sapiens (Human), UniProt P98170, C202A/C213G)", "result_units": "nM", "IC50": 72}
{"compound": "COc1ccc2ccccc2c1CN1C(=O)C(NC(=O)[C@H](C)N)C(=O)N(CC23CC4CC(CC(C4)C2)C3)c2ccccc21 (stereo partly drawn) [Example 111]", "system": "BIR2 domain of XIAP (Homo sapiens (Human), UniProt P98170, C202A/C213G)", "result_units": "nM", "IC50": 295}

Source: patent US10053431B2
